Source: patent EP0545103A1

System: Spodoptera eridania, 3rd instar larvae, southern armyworm
Assay: Southern armyworm 3rd instar test, dipped limabean leaf
Type: in vivo
Design: key: 0: no effect; 10-25% kill; 26-35% kill; 36-45% kill; 46-55% kill; 56-65% kill; 66-75% kill; 76-85% kill; 86-99% kill; 9: 100% kill
Details: 10 ppm; rating at 3 days

{"molecule": "CN=C(NC)SCn1c(Cl)c(C#N)c(Cl)c1-c1ccc(Cl)c(Cl)c1 [Example 19]", "tested_target": "Spodoptera eridania, 3rd instar larvae, southern armyworm", "ARMYWORM Day 3": 0}
{"molecule": "CN=C(NC)SCn1c(Br)c(Br)c(C#N)c1Br [Example 14]", "tested_target": "Spodoptera eridania, 3rd instar larvae, southern armyworm", "ARMYWORM Day 3": 0}
{"molecule": "N#Cc1c(Br)c(Br)n(CSCc2ccccc2)c1Br [Example 40]", "tested_target": "Spodoptera eridania, 3rd instar larvae, southern armyworm", "ARMYWORM Day 3": 0}
